Every entry's value here was drawn from patent US20240025907A1.

- System: KRas-mediated Phosphorylation of ERK in H727 cells
- test method notes: Cisbio HTRF pERK assay, H727 cells
- Assay type: cell-based
- conditions: Homo sapiens, NCI-H727, 3 h, 3 hrs compound, read-out: Inhibition (HTRF IC50 nM) of KRas-mediated Phosphorylation of ERK, H727

compound	IC50
N#Cc1c(N)sc2c(F)ccc(-c3c(Cl)cc4c(N5C[C@@H]6C(=O)NC(=O)[C@@H]6C5)nc(OC[C@@]56CCCN5C[C@H](F)C6)nc4c3F)c12 [Example 200]	4730 nM
C[C@@]1(O)CCCN(c2nc(OC[C@@]34CCCN3C[C@H](F)C4)nc3c(F)c(-c4ccc(F)c5sc(N)c(C#N)c45)c(F)cc23)C1 [Example 198]	717 nM
C=Cc1cc2c(N3CCCn4nc(C(=O)N(C)C)cc4C3)nc(OC[C@@]34CCCN3C[C@H](F)C4)nc2c(F)c1-c1ccc(F)c2sc(N)c(C#N)c12 [Example 176]	23 nM
CCc1c(F)ccc2cc(O)cc(-c3c(F)cc4c(N5CC(c6ccncc6)C5)nc(OC[C@@]56CCCN5C[C@H](F)C6)nc4c3F)c12 [Example 175]	422 nM
CCc1c(F)ccc2cc(O)cc(-c3c(F)cc4c(NCc5c[nH]c6ncccc56)nc(OC[C@@]56CCCN5C[C@H](F)C6)nc4c3F)c12 [Example 174]	694 nM
N#Cc1c(N)sc2c(F)ccc(-c3c(Cl)cc4c(N5CCC5CO)nc(OC[C@@]56CCCN5C[C@H](F)C6)nc4c3F)c12 (stereo partly drawn) [Example 209]	27 nM

* * *

- Tested on: KRas-mediated Phosphorylation of ERK in AsPC-1 cells
- test method notes: Cisbio HTRF pERK assay, AsPC-1 cells
- Assay type: cell-based
- conditions: 3 hrs compound, read-out: Inhibition (HTRF IC50 nM) of KRas-mediated Phosphorylation of ERK, AsPC-1
Could you please mark Y for values of IC50 below 3 nM and N for values at or above it?

molecule	assigned category
N#Cc1c(N)sc2c(F)ccc(-c3c(Cl)cc4c(N5CCCOC6CC65)nc(OC[C@@]56CCCN5C[C@H](F)C6)nc4c3F)c12 (single isomer, unassigned) [Example 212]	N
N#Cc1c(N)sc2c(F)ccc(-c3c(Cl)cc4c(N5CCCn6nnc(Cl)c6C5)nc(OC[C@@]56CCCN5C[C@H](F)C6)nc4c3F)c12 (single isomer, unassigned) [Example 196]	N
N#Cc1c(N)sc2c(F)ccc(-c3c(Cl)cc4c(N5CC6CCC(C5)N6)nc(OC[C@@]56CCCN5C/C(=C\F)C6)nc4c3F)c12 [Example 179]	N
N#Cc1c(N)sc2c(F)ccc(-c3c(Cl)cc4c(N5CCCn6nnc(Cl)c6C5)nc(OC[C@@]56CCCN5C[C@H](F)C6)nc4c3F)c12 (single isomer, unassigned) [Example 197]	Y

* * *

- Tested on: KRas-mediated Phosphorylation of ERK in PSN1 cells
- test method notes: Cisbio HTRF pERK assay, PSN1 cells
- Type: cell-based
- conditions: Homo sapiens, PSN1, 3 h, 3 hour compound, read-out: Inhibition (HTRF IC50 nM) of KRas-mediated Phosphorylation of ERK, PSN1
measure name: IC50 (nM)

smiles notation	tested system	measure name	unit of measure	result modifier	reported measurement
CN(c1nc(OC[C@@]23CCCN2C[C@H](F)C3)nc2c(F)c(-c3ccc(F)c4sc(N)c(C#N)c34)c(Cl)cc12)C1CC1	KRas-mediated Phosphorylation of ERK in PSN1 cells	IC50	nM	=	4790
N#Cc1c(N)sc2c(F)ccc(-c3c(Cl)cc4c(N5CCCCC(=O)C5)nc(OC[C@@]56CCCN5C[C@H](F)C6)nc4c3F)c12	KRas-mediated Phosphorylation of ERK in PSN1 cells	IC50	nM	=	798
COc1nc(OC[C@@]23CCCN2C[C@H](F)C3)nc2c(F)c(-c3ccc(F)c4sc(N)c(C#N)c34)c(Cl)cc12	KRas-mediated Phosphorylation of ERK in PSN1 cells	IC50	nM	=	5870
C[C@@]1(O)COCCN(c2nc(OC[C@@]34CCCN3C[C@H](F)C4)nc3c(F)c(-c4ccc(F)c5sc(N)c(C#N)c45)c(F)cc23)C1	KRas-mediated Phosphorylation of ERK in PSN1 cells	IC50	nM	=	2440
CN(C)C(=O)c1cc2n(n1)CCCN(c1nc(OC[C@@]34CCCN3C[C@H](F)C4)nc3c(F)c(-c4ccc(F)c5sc(N)c(C#N)c45)c(F)cc13)C2	KRas-mediated Phosphorylation of ERK in PSN1 cells	IC50	nM	=	3820
N#Cc1c(N)sc2c(F)ccc(-c3c(Cl)cc4c(N5CCC5)nc(OC[C@@]56CCCN5C[C@H](F)C6)nc4c3F)c12	KRas-mediated Phosphorylation of ERK in PSN1 cells	IC50	nM	=	4890
N#Cc1c(N)sc2c(F)ccc(-c3c(Cl)cc4c(NCCS(N)(=O)=O)nc(OC[C@@]56CCCN5C[C@H](F)C6)nc4c3F)c12	KRas-mediated Phosphorylation of ERK in PSN1 cells	IC50	nM	>	10000

* * *

- Tested on: KRas-mediated Phosphorylation of ERK in AsPC-1 cells
- test method notes: Cisbio HTRF pERK assay, AsPC-1 cells
- Assay type: cell-based
- conditions: Homo sapiens, ASPC1, single point at 100 nM

compound	tested system	unit of measure	inhibition at 0.1 µM
CCc1c(F)ccc2cc(O)cc(-c3ccc4c(N5CCCC6(CCO6)C5)nc(OC[C@@]56CCCN5C[C@H](F)C6)nc4c3F)c12 (stereo partly drawn)	KRas-mediated Phosphorylation of ERK in AsPC-1 cells	%	90
CCc1c(F)ccc2cc(O)cc(-c3c(F)cc4c(N5CCCn6nc(C(=O)N7CCN(C)CC7)cc6C5)nc(OC[C@@]56CCCN5C[C@H](F)C6)nc4c3F)c12	KRas-mediated Phosphorylation of ERK in AsPC-1 cells	%	90
CCc1c(F)ccc2cc(O)cc(-c3c(F)cc4c(N5CCC[C@@](C)(O)C5)nc(OCC5(CN(C)C)CC5)nc4c3F)c12	KRas-mediated Phosphorylation of ERK in AsPC-1 cells	%	91

* * *

- tested system: KRas^WT (Homo sapiens)
- Construct: Biotinylated KRas (corresponding to amino acids 1-169, produced at Accelegan Inc.); biotin (biotinylated); purchased Accelegan Inc
- Sequence (P01116 1-169 isoform P01116-2): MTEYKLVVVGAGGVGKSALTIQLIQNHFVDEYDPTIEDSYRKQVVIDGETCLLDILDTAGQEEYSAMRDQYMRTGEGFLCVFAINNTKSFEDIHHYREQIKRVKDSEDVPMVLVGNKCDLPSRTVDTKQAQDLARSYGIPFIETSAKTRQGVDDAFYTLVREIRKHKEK
- test method notes: KRas TR-FRET tracer displacement binding assay, WT
- conditions: 60-minute incubation
- Protocol: KRas^WT, KRas^G12A, KRas^G12C, KRas^G12D, KRas^G12R, KRas^G12S, KRas^G12V, KRas^G13D, or KRas^Q61H was used in the assay. The ability of a compound to bind to KRas was measured using a TR-FRET displacement assay. […] After a 60-minute incubation at room temperature, the reaction was measured using a BMG LABTECH CLARIO star Plus via TR-FRET.
Here, each record is paired with measured IC50 data.
measure name: IC50

smiles notation	reported measurement
C=Cc1cc2c(N3CCCn4nc(C(=O)N(C)C)cc4C3)nc(OC[C@@]34CCCN3C[C@H](F)C4)nc2c(F)c1-c1ccc(F)c2sc(N)c(C#N)c12	< 2 nM
CN(C)C(=O)c1cc2n(n1)CCCN(c1nc(OC[C@@]34CCCN3C[C@H](F)C4)nc3c(F)c(-c4ccc(F)c5sc(N)c(C#N)c45)c(F)cc13)C2	< 2 nM
CN(C)C(=O)c1cc2n(n1)CCCN(c1nc(OC[C@@]34CCCN3C[C@H](F)C4)nc3c(F)c(-c4ccc(F)c5sc(N)c(C#N)c45)c(C4CC4)cc13)C2	< 2 nM

* * *

- tested system: KRas^G12V (Homo sapiens, UniProt P01116, G12V)
- Construct: Biotinylated KRas (corresponding to amino acids 1-169, produced at Accelegan Inc.); biotin (biotinylated); purchased Accelegan Inc
- Sequence (P01116 1-169 isoform P01116-2 G12V): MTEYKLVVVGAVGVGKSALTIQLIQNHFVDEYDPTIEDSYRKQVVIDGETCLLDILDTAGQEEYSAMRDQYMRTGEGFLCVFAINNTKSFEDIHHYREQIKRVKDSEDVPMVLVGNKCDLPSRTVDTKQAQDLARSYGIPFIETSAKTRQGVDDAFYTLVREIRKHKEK
- test method notes: KRas TR-FRET tracer displacement binding assay, G12V
- conditions: 60-minute incubation
measure name: IC50

compound	measure name	reported measurement
CC(Oc1nc(N(C)C)c2cc(F)c(-c3ccc(F)c4sc(N)c(C#N)c34)c(F)c2n1)C12CCCN1CCC2 (single isomer, unassigned; isomer 2) [Example 178]	IC50	10 nM
N#Cc1c(N)sc2c(F)ccc(-c3c(C4CC4)cc4c(N5C[C@H]6CC[C@@H](C5)N6)nc(OC[C@@]56CCCN5C[C@H](F)C6)nc4c3F)c12 [Example 208]	IC50	10.4 nM
CCc1c(F)ccc2cc(O)cc(-c3c(F)cc4c(N5CC(c6ccncc6)C5)nc(OC[C@@]56CCCN5C[C@H](F)C6)nc4c3F)c12 [Example 175]	IC50	12 nM
Cc1c(F)c(N)nc(-c2c(Cl)cc3c(NC(C)c4cccnc4N)nc(OC[C@@]45CCCN4C[C@H](F)C5)nc3c2F)c1C(F)(F)F (single isomer, unassigned; isomer 1) [Example 172]	IC50	3 nM
N#Cc1c(N)sc2c(F)ccc(-c3c(Cl)cc4c(N5CCCOCC5)nc(OC[C@@]56CCCN5C[C@H](F)C6)nc4c3F)c12 [Example 211]	IC50	2 nM
N#Cc1c(N)sc2c(F)ccc(-c3c(Cl)cc4c(NCCS(N)(=O)=O)nc(OC[C@@]56CCCN5C[C@H](F)C6)nc4c3F)c12 [Example 201]	IC50	3 nM
CC(Oc1nc(N(C)C)c2cc(F)c(-c3ccc(F)c4sc(N)c(C#N)c34)c(F)c2n1)C12CCCN1CCC2 (single isomer, unassigned; isomer 1) [Example 177]	IC50	18 nM
CN(C)C(=O)c1cc2n(n1)CCCN(c1nc(OC[C@@]34CCCN3C[C@H](F)C4)nc3c(F)c(-c4ccc(F)c5sc(N)c(C#N)c45)c(C4CC4)cc13)C2 [Example 207]	IC50	< 2 nM
C[C@@]1(O)CCCN(c2nc(OC[C@@]34CCCN3C[C@H](F)C4)nc3c(F)c(-c4ccc(F)c5sc(N)c(C#N)c45)c(F)cc23)C1 [Example 198]	IC50	13 nM
